Hey, just so you know, these numbers are from ChEMBL document CHEMBL4477252.

Measured IC50 by item
Target: Mitogen-activated protein kinase 13 (Homo sapiens)
Sequence (O15264 whole entry): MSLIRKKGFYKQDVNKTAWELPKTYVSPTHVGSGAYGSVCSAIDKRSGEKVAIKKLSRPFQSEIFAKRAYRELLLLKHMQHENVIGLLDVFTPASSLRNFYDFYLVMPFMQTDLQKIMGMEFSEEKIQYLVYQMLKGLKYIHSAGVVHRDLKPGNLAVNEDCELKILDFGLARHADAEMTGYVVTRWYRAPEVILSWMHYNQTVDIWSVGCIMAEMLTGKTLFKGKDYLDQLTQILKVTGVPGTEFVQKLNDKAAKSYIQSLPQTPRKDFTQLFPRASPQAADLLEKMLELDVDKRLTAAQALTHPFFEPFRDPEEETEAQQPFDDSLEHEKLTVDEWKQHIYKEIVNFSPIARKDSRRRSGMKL
Experiment: Inhibition of full-length recombinant human His-tagged MAPK13 expressed in baculovirus expression system by Z'-LYTE assay
readout: IC50 (µM)

* Cn1cc(-c2cnc3c(-c4csc(C(=O)NCC(F)(F)F)c4)cnn3c2)cn1 | 2.2
* O=C(NCC(F)(F)F)c1cc(-c2cnn3cc(-c4ccc(OCCN5CCCCC5)cc4)cnc23)cs1 | 13
* Cn1cc(-c2cnc3c(-c4csc(C(=O)N[C@@H]5CCCC[C@@H]5N)c4)cnn3c2)cn1 (racemic) | 0.039
* Cc1sc(C(=O)N[C@@H]2[C@H](N)CCCC2(F)F)cc1-c1cnn2cc(Cl)cnc12 | 0.16
